- System: Corn (CN)
- PROTOCOL_SUMMARY: Pre-emergence herbicide test
- Type: in vivo
- RUN_PARAMETERS: Zea mays, 336 h, 1 lb/acre, two weeks after treatment
QUANTITY_KIND: pest or weed control at 1120.85 g/ha (%)
Express the result in % but write the number alone.

COMPOUND: CCCCCCCCSc1nnc(NC(=O)NC)s1 [Example 78]
ASSAY_TARGET: Corn (CN)
pest or weed control at 1120.85 g/ha, %: 0
--
COMPOUND: CCCCSc1nnc(N(C)C(=O)NC)s1 [Example 90]
ASSAY_TARGET: Corn (CN)
pest or weed control at 1120.85 g/ha, %: 10
--
COMPOUND: CCSc1nnc(N(C)C(=O)NC)s1 [Example 89]
ASSAY_TARGET: Corn (CN)
pest or weed control at 1120.85 g/ha, %: 50
--
COMPOUND: CCS(=O)(=O)c1nnc(N(C)C(=O)NC)s1 [Example 91]
ASSAY_TARGET: Corn (CN)
pest or weed control at 1120.85 g/ha, %: 50

Now examine the next entry.
Query: Please give the measured pest or weed control at 1120.85 g/ha for this compound: CCCCS(=O)(=O)c1nnc(N(C)C(=O)NC)s1 [Example 92]
Response: 10

* * *

- System: Johnson grass (JG)
- PROTOCOL_SUMMARY: Pre-emergence herbicide test
- Type: in vivo, Sorgum helepense
- RUN_PARAMETERS: Sorghum halepense, 336 h, 0.5 lb/acre, two weeks after treatment
QUANTITY_KIND: pest or weed control at 560.425 g/ha

Some entries whose results are on file:
COMPOUND: CCCCS(=O)(=O)c1nnc(N(C)C(=O)NC)s1 [Example 92]
pest or weed control at 560.425 g/ha: 10%

COMPOUND: CCSc1nnc(N(C)C(=O)NC)s1 [Example 89]
pest or weed control at 560.425 g/ha: 40%

Query: Please give the measured pest or weed control at 560.425 g/ha for this compound: CCCCSc1nnc(N(C)C(=O)NC)s1 [Example 90]
Response: 10%

Query: Please give the measured pest or weed control at 560.425 g/ha for this compound: CCS(=O)(=O)c1nnc(N(C)C(=O)NC)s1 [Example 91]
Response: 50%

* * *

- System: Johnson grass (JG)
- PROTOCOL_SUMMARY: Post-emergence herbicide test
- Format: in vivo, Sorgum helepense
- RUN_PARAMETERS: Sorghum halepense, 336 h, 8 lb/acre, two weeks after treatment
QUANTITY_KIND: pest or weed control at 8966.8 g/ha (%)
Express the result in % but write the number alone.

Some entries whose results are on file:
MOLECULAR_STRING: CCCNC(=O)Nc1nnc(C(F)(F)F)s1
U: %
VALUE: 30
//
MOLECULAR_STRING: C=CCNC(=O)Nc1nnc(C(F)(F)F)s1
U: %
VALUE: 40
//
MOLECULAR_STRING: C=CCNC(=O)Nc1nnc(SC)s1
U: %
VALUE: 30
//
MOLECULAR_STRING: CNC(=O)Nc1nnc(C)s1
U: %
VALUE: 20

Now examine the next entry.
Query: Observed pest or weed control at 8966.8 g/ha on Johnson grass (JG) for "CNC(=O)Nc1nncs1" , please.
Response: 10
